Molecular target: Platelet-activating factor receptor (Oryctolagus cuniculus)
Assay: In vitro inhibition of PAF-induced aggregation of rabbit washed platelets.
pIC50: −log10 of the molar value.
Observed Property: pIC50

Known results for compounds:
Request: Query pIC50 on Platelet-activating factor receptor (Oryctolagus cuniculus) for CCOC(=O)C1=C(c2ccc(-n3ccnc3C)cc2)N=C(C)C(C(=O)Nc2ccccn2)C1c1ccccc1Cl (stereo unspecified)
Response: 7.64

Request: Lab note: need pIC50 for CCOC(=O)C1=C(c2ccc(-c3c(C)nc4sccn34)cc2)NC(C)=C(C(=O)Nc2ccccn2)C1c1ccccc1Cl (stereo unspecified) on Platelet-activating factor receptor (Oryctolagus cuniculus), anyone have it?
Response: 8.30

(P) CCOC(=O)C1=C(c2ccc(-n3c(C)nc4cnccc43)cc2)N=C(C)C(C(=O)Nc2ccccn2)C1c1ccccn1 (stereo unspecified)
(Q) CCOC(=O)C1=C(c2ccc(-n3c(C)nc4cnccc43)cc2)N=C(C)C(C(N)=O)C1c1ccccc1Cl (stereo unspecified)
Request: Given P and Q , report the one with the higher recorded pIC50. Write down the label attached to your selection.
Response: Q
(Q: 8.25, P: 7.85)

(1) CCOC(=O)C1=C(c2ccc(-n3c(C)nc4cnccc43)cc2)N=C(C)C(C(=O)O)C1c1ccccc1Cl (stereo unspecified)
(2) CCOC(=O)C1=C(c2ccc(-n3c(C)nc4c(OC)ncnc43)cc2)N=C(C)C(C(=O)Nc2ccccn2)C1c1ccccc1Cl (stereo unspecified)
(3) CCOC(=O)C1=C(c2ccc(-n3c(C)nc4cccnc43)cc2)N=C(C)C(C(=O)Nc2ccccn2)C1c1ccccc1Cl (stereo unspecified)
Request: Rank ascending by pIC50. Return value: ordered labels per request.
Response: 2, 3, 1
(2: 6.57, 3: 7.55, 1: 7.85)

(P) CCOC(=O)C1=C(c2ccc(-c3ocnc3C)cc2)N=C(C)C(C(=O)Nc2ccccn2)C1c1ccccc1Cl (stereo unspecified)
(Q) CCOC(=O)C1=C(c2ccc(-n3c(C)nc4cnccc43)cc2)N=C(C)C(C(=O)NC(C)(C)C)C1c1ccccc1Cl (stereo unspecified)
Request: When the recorded pIC50 values are compared, which is smaller: that of P or that of Q ? Bench note: the answer is the label of the chosen record.
Response: P

----------
Target: Platelet-activating factor receptor (Oryctolagus cuniculus)
Assay: In vitro inhibition of PAF-induced aggregation of rabbit washed platelets.
Observed Property: IC50 (µM)

Here are 5 molecules together with their reported answers.
Request: Look at this molecule and give its reported IC50. CCOC(=O)C1=C(c2ccc(-n3c(C)nc4cnccc43)cc2)N=C(C)C(C(=O)Nc2ccccn2)C1c1cccnc1 (stereo not given)
Response: 0.033

Request: # IC50 lookup, item CCOC(=O)C1=C(c2ccc(-n3c(C)nc4cnccc43)cc2)N=C(C)C(C(=O)Nc2ccccn2)C1c1csc2ccccc12 (stereo not given)
Response: 0.0031

Request: Which IC50 value belongs to CCOC(=O)C1=C(c2ccc(-n3c(C)nc4cnccc43)cc2)N=C(C)C(C(=O)OC(C)(C)C)C1c1ccccc1Cl (stereo not given) ?
Response: 0.0013

Request: Suppose we examine the molecule CCOC(=O)C1=C(c2ccc(-n3cnc(C)c3)cc2)N=C(C)C(C(=O)Nc2ccccn2)C1c1ccccc1Cl (stereo not given) ; what IC50 value has been reported?
Response: 0.58

Request: // query IC50 value for entry CCOC(=O)C1=C(c2ccc(-n3c(C)nc4cnccc43)cc2)N=C(C)C(C(=O)Nc2ccccn2)C1c1ccc(C#N)cc1 (stereo not given)
Response: 0.025

(1) CCOC(=O)C1=C(c2ccc(-c3c(C)nc4ccccn34)cc2)N=C(C)C(C(=O)Nc2ccccn2)C1c1ccccc1Cl (stereo not given)
(2) CCOC(=O)C1=C(c2ccc(-n3c(C(F)(F)F)nc4cnccc43)cc2)N=C(C)C(C(=O)Nc2ccccn2)C1c1ccccc1Cl (stereo not given)
Request: Identify the entry with the larger IC50. Options: 1 and 2 Indicate which entry you chose by stating its label.
Response: 2
(2: 0.03 µM, 1: 0.0021 µM)

These entries and their values trace back to BindingDB's records for doi:10.1021/jm00095a005.
